All values here come from patent US4880636A.

Test: Cast film plasticizer comparison study (discoloration)
Assay type: physicochemical
Settings: ranitidine HCl spread on cast HPMC film with plasticizer (0.2 gm per gram HPMC); 60 degrees centigrade/78.9% RH, approximately two weeks; visual
Structures can show the parent of a compound that is named as a salt.
readout: Cast Film Discoloration

Worked cases, Cast Film Discoloration given:
# compound, Cast Film Discoloration
measured = [
    ("CCOC(=O)CC(O)(CC(=O)OCC)C(=O)OCC [Triethyl Citrate, triethyl citrate]", 3),
    ("CC(O)CO (stereo not shown)", 2),
]

I: CC(=O)OCC(COC(C)=O)OC(C)=O [Triacetin, 1,2,3-propanetriol triacetate]
II: OCC(O)CO
Please let me know which one, I or II , has a lower measured Cast Film Discoloration value. Lab note: record the label of whichever item you select.
I
(I: 1, II: 5)
